test: Terminal half life in dog at 1 mg/kg, iv; assay type: ADME, organism-based, Canis lupus familiaris; design: dose 1 mg/kg, route intravenous; details: in vivo, read-out: beta t1/2 (converted)
RESULT TYPE: half-life (h)
A number alone suffices; assume h.

query: Fill in: half-life of `CO/C(C)=C1/NC(=O)[C@H]([C@@H](C)O)NC(=O)c2csc(n2)-c2cc(OC)c(-c3nc(C(=O)NCCCN4CCOCC4)cs3)nc2-c2csc(n2)[C@@H]2COC(=O)c3c4c5c(cccc5n3O)COC(=O)[C@@H](O[C@H]3C[C@](C)(O)[C@H](N(C)C)[C@H](C)O3)[C@@H](OC4)[C@H](NC(=O)c3csc1n3)c1nc(cs1)C(=O)N2` is ___
result: 5.4
